# GI50 listing for each entry below
Test system: SK-MEL-2
Protocol text: NCI tumour cell line growth inhibition, 48 h
Calls of active or inactive are those of the source. Cut-off read from the data, not from the text of the source: active = GI50 up to about 1.1 µM and inactive = higher.

| Compound | GI50 |
| --- | --- |
| CC(C)(C)OC(=O)N1C(=O)C2CCCC21 (centres undefined) | > 100 µM (inactive) |
| Nc1nc(-c2ccccc2)nc2oc(-c3cccs3)nc12 | > 100 µM (inactive) |
| COC(=O)C(=O)Cc1nc2ccccc2s1 | > 100 µM (inactive) |
| Cc1cc(O)c(C(=O)O)c2c1C(=O)c1c(O)c(OCC(O)C(O)C(O)C(O)CO)c(O)c(O)c1C2=O.NCCNCCO (centres undefined) | > 100 µM (inactive) |
| CCc1cccc(CC)c1NC(=O)C1=CNC(C)=C(C(=O)Nc2c(CC)cccc2CC)C1c1ccc(O)c(OC)c1 (centres undefined) | 26.2 µM (inactive) |
| CN(c1ccccc1)c1nc(=[N+]2CCCC2)ss1.[O-][Cl+3]([O-])([O-])[O-] | > 100 µM (inactive) |
| COc1cc(Oc2nc3cc(F)c(F)cc3nc2-c2ccccc2)cc(OC)c1OC | > 100 µM (inactive) |
| COC(=O)C(=O)C(C(=O)C=C(C)C)C(=O)C(=O)Nc1cccc(C(C)=O)c1 (centres undefined) | > 100 µM (inactive) |
| C/C(=N/Nc1ccc([N+](=O)[O-])cc1[N+](=O)[O-])C(CC(C(=O)NCc1ccccc1)/C(C)=N\Nc1ccc([N+](=O)[O-])cc1[N+](=O)[O-])C(=O)NCc1ccccc1 (centres undefined) | 10.1 µM (inactive) |
